Tested on: coxsackie B3 virus
Test: In vitro CPE assay in mammalian cell culture, B3
Type: cell-based
Conditions: Enterovirus B, viral cytopathic effect in mammalian cell culture, read-out: B3 inhibition capacity (IC50)
pIC50: −log10 of the molar value.
Catalogue of pIC50 readings, one per entry.

Below, each entry is followed by its recorded pIC50 result.
1. Cc1cc(NCc2ccc(NS(C)(=O)=O)cc2)n2nc(C)c(-c3ccc4c(c3)c(C)nn4C)c2n1 [Example 16]; > 7.00
2. COc1ccc(CNc2cc(C)nn3c(-c4ccc5c(c4)c(C)nn5C)c(C)nc23)cn1 [Example 4]; > 7.00
3. COc1ccc(CNc2nc(C)nc3c(-c4ccc5c(c4)c(C)nn5C)c(C)nn23)cn1 [Example 28]; > 7.00

Data request: Bench note: what pIC50 did Cc1nc(NCc2ccc(NS(C)(=O)=O)cc2)n2nc(C)c(-c3ccc4c(c3)c(C)nn4C)c2n1 [Example 26] show?
Data returned: > 7.00

Data request: Repeat with Cc1cc(NCc2ccncc2)n2nc(C)c(-c3ccc4c(c3)c(C)nn4C)c2n1 [Example 8]
Data returned: > 10.00

Data request: Can you handle Cc1cc(NCc2cccs2)n2nc(C)c(-c3ccc4c(c3)c(C)nn4C)c2n1 [Example 15] next?
Data returned: > 7.00

Data request: Entry Cc1nc(NCc2ccc(S(C)(=O)=O)cc2)n2nc(C)c(-c3ccc4c(c3)c(C)nn4C)c2n1 [Example 25] please
Data returned: > 8.00

Data request: Same lookup for Cc1cc(NCc2ccc(S(N)(=O)=O)cc2)n2nc(C)c(-c3ccc4c(c3)c(C)nn4C)c2n1 [Example 13] , please.
Data returned: > 7.00

---

Test system: coxsackie B2 virus
Test: In vitro CPE assay in mammalian cell culture, B2
Type: cell-based
Conditions: viral cytopathic effect in mammalian cell culture, read-out: B2 inhibition capacity (IC50)
MEASURED_QUANTITY: IC50

Worked examples follow.
1) Cc1ccc(CNc2cc(C)nn3c(-c4ccc5c(c4)c(C)nn5C)c(C)nc23)cn1 [Example 2]; < 100 nM
2) Cc1nc(NCc2ccc(S(N)(=O)=O)cc2)n2nc(C)c(-c3ccc4c(c3)c(C)nn4C)c2n1 [Example 23]; < 100 nM
3) Cc1cc(NCc2ccccc2)n2nc(C)c(-c3ccc4c(c3)c(C)nn4C)c2n1 [Example 18]; < 100 nM
4) COc1ccc(CNc2cc(C)nc3c(-c4ccc5c(c4)c(C)nn5C)c(C)nn23)cn1 [Example 14]; < 1000 nM
5) Cc1cc(NCc2ccncc2)n2nc(C)c(-c3ccc4c(c3)c(C)nn4C)c2n1 [Example 8]; < 0.1 nM
6) Cc1nc(NCc2ccc(NS(C)(=O)=O)cc2)n2nc(C)c(-c3ccc4c(c3)c(C)nn4C)c2n1 [Example 26]; < 100 nM
7) Cc1cc(NCc2ccc(S(C)(=O)=O)cc2)c2nc(C)c(-c3ccc4c(c3)c(C)nn4C)n2n1 [Example 7]; < 10 nM

Attention now shifts to the item below.
Data request: Consider the molecule shown here: Cc1cc(NCc2ccc(F)cc2)n2nc(C)c(-c3ccc4c(c3)c(C)nn4C)c2n1 [Example 19] What is its recorded IC50?
Data returned: < 1000 nM

---

Assay: in vivo
Design: species or system Sprague Dawley rats
Conditions: male, Sprague Dawley, rat, po, 50 mg/kg
MEASURED_QUANTITY: Cmax (ng/mL)
Response body: numeric value in ng/mL, unit text excluded.

Some solved cases for reference:
1. Cc1cc(NCc2ccncc2)c2nc(C)c(-c3ccc4c(c3)c(C)nn4C)n2n1; 3900
2. Cc1cc(NCc2ccc(S(N)(=O)=O)cc2)n2nc(C)c(-c3ccc4c(c3)c(C)nn4C)c2n1; 5900

Data request: Could you tell me which Cmax is on file for `Cc1cc(NCc2ccncc2)n2nc(C)c(-c3ccc4c(c3)c(C)nn4C)c2n1` ?
Data returned: 12900

Data request: Thanks! And `Cc1cc(NCc2ccc(S(C)(=O)=O)cc2)n2nc(C)c(-c3ccc4c(c3)c(C)nn4C)c2n1` ?
Data returned: 1900

Data request: Quick one: `Cc1ccc(CNc2cc(C)nn3c(-c4ccc5c(c4)c(C)nn5C)c(C)nc23)cn1`
Data returned: 4800

Data request: And the next one, `Cc1nc(NCc2ccncc2)n2nc(C)c(-c3ccc4c(c3)c(C)nn4C)c2n1` ?
Data returned: 8000
